Tested on: HIV-1 LTR G-quadruplex template (G4 LTR Stop)
Assay: Taq polymerase stop assay
Assay type: biochemical
Details: 2.5 µM, pixel intensity normalized against negative control
observed_property: Fold change: A (G-patch 6′)
Give bare numbers.

Below, 3 compounds whose answers are already recorded.
NCCOc1cc(C(=O)Nc2cc(OCCN)c3ccccc3n2)nc(C(=O)Nc2cc(OCCN)c3ccccc3n2)c1 [PDS, pyridostatin, reference compound] ... 2.6
Cn1cc(/C=C/c2cc(/C=C/c3cn(C)c4ccccc34)[n+]3c(c2)-c2c(ccc4c2-c2cccc[n+]2CCC4)CCC3)c2ccccc21 ... 1.9
C(=C\c1cc(/C=C/c2ccc3c(c2)CCO3)[n+]2c(c1)-c1c(ccc3c1-c1cccc[n+]1CCC3)CCC2)/c1ccc2c(c1)CCO2 ... 1.4

Attention now shifts to the item below.
Q: Consider the compound `COc1ccc2ccccc2c1/C=C/c1cc[n+]2c(c1)-c1c(c(C)c(C)c3c1-c1cc(/C=C/c4c(OC)ccc5ccccc45)cc[n+]1CC3)CC2` and give its measured Fold change: A (G-patch 6′).
A: 2.8

---

Test system: HIV-1 LTR G-quadruplex template (G4 LTR Stop)
Experiment: Taq polymerase stop assay
Format: biochemical
Conditions: 1 μM, normalized against control
observed_property: Fold change, all regions (A, B and C) together
Answers are plain numbers.

Cn1cc(/C=C/c2cc(/C=C/c3cn(C)c4ccccc34)[n+]3c(c2)-c2c(ccc4c2-c2cccc[n+]2CCC4)CCC3)c2ccccc21 [Compound 12] ... 1.4
C(=C\c1cc(/C=C/c2ccc3c(c2)CCO3)[n+]2c(c1)-c1c(ccc3c1-c1cccc[n+]1CCC3)CCC2)/c1ccc2c(c1)CCO2 [Compound 14] ... 1.2
COc1ccc2ccccc2c1/C=C/c1cc[n+]2c(c1)-c1c(c(C)c(C)c3c1-c1cc(/C=C/c4c(OC)ccc5ccccc45)cc[n+]1CC3)CC2 [Compound 15] ... 1.6

Q: May I ask what Fold change, all regions (A, B and C) together has been recorded for NCCOc1cc(C(=O)Nc2cc(OCCN)c3ccccc3n2)nc(C(=O)Nc2cc(OCCN)c3ccccc3n2)c1 [PDS, pyridostatin, reference compound] ?
A: 2.0

---

Test system: G-quadruplexes in the HIV-1 LTR (G4 LTR FRET oligonucleotide)
Assay: FRET melting assay
Assay type: binding
Conditions: 2 μM compound, 0.2 μM oligonucleotide; average Tm minus average Tm of PBS
So I've got a bunch of molecules here, and I need their ΔTm values.
One number for each entry, in °C.

Previously resolved entries follow.
Cn1cc(/C=C/c2cc(/C=C/c3cn(C)c4ccccc34)[n+]3c(c2)-c2c(ccc4c2-c2cccc[n+]2CCC4)CCC3)c2ccccc21 ... 28
COc1ccc2ccccc2c1/C=C/c1cc[n+]2c(c1)-c1c(c(C)c(C)c3c1-c1cc(/C=C/c4c(OC)ccc5ccccc45)cc[n+]1CC3)CC2 ... 19
C(=C\c1cc(/C=C/c2ccc3c(c2)CCO3)[n+]2c(c1)-c1c(ccc3c1-c1cccc[n+]1CCC3)CCC2)/c1ccc2c(c1)CCO2 ... 13

Okay, next one:
Q: GET /values?readout=ΔTm&item= NCCOc1cc(C(=O)Nc2cc(OCCN)c3ccccc3n2)nc(C(=O)Nc2cc(OCCN)c3ccccc3n2)c1 [PDS, pyridostatin, reference compound]
A: 42

---

Experiment: in vitro
Format: cell-based
Conditions: human
observed_property: CC50 at 5 days

Hey, quick one: what's CC50 at 5 days for each of these?
1. Cc1c(C)c2c(c3c1CC[n+]1ccc(/C=C/c4ccc(-c5ccccc5)s4)cc1-3)-c1cc(/C=C/c3ccc(-c4ccccc4)s3)cc[n+]1CC2
2. CN1/C(=C/c2cccc3[n+]2CCCc2ccc4c(c2-3)-c2cccc(/C=C3\Sc5ccccc5N3C)[n+]2CCC4)Sc2ccccc21
3. C(=C\c1cccc2[n+]1CCc1ccc3c(c1-2)-c1cccc(/C=C/c2ccc(C(=C(c4ccccc4)c4ccccc4)c4ccccc4)cc2)[n+]1CC3)/c1ccc(C(=C(c2ccccc2)c2ccccc2)c2ccccc2)cc1
4. Cc1c(C)c2c(c3c1CC[n+]1ccc(/C=C/c4c[nH]c5ccccc45)cc1-3)-c1cc(/C=C/c3c[nH]c4ccccc34)cc[n+]1CC2
5. Cc1c(C)c2c(c3c1CC[n+]1ccc(/C=C/c4c5ccccc5c(C)c5ccccc45)cc1-3)-c1cc(/C=C/c3c4ccccc4c(C)c4ccccc34)cc[n+]1CC2
6. Cn1c(/C=C/c2cccc3[n+]2CCc2ccc4c(c2-3)-c2cccc(/C=C/c3cc5ccccc5n3C)[n+]2CC4)cc2ccccc21

A:
> 50 µM
> 50 µM
> 50 µM
> 50 µM
> 50 µM
> 50 µM

Q: Tell me the measured CC50 at 5 days of `Cc1c(C)c2c(c3c1CC[n+]1ccc(/C=C/c4c[nH]c5ccc(Br)cc45)cc1-3)-c1cc(/C=C/c3c[nH]c4ccc(Br)cc34)cc[n+]1CC2` , please.
A: > 50 µM

---

Kindly supply the reported Fold change, all regions (A, B and C) together values for the records listed here.
Test system: HIV-1 LTR G-quadruplex template (G4 LTR Stop)
Experiment: Taq polymerase stop assay
Type: biochemical
Settings: 2.5 μM, normalized against control
One number for each entry.

Sample records with Fold change, all regions (A, B and C) together:
C(=C\c1cc(/C=C/c2ccc3c(c2)CCO3)[n+]2c(c1)-c1c(ccc3c1-c1cccc[n+]1CCC3)CCC2)/c1ccc2c(c1)CCO2 ... 1.7
Cn1cc(/C=C/c2cc(/C=C/c3cn(C)c4ccccc34)[n+]3c(c2)-c2c(ccc4c2-c2cccc[n+]2CCC4)CCC3)c2ccccc21 ... 1.9
COc1ccc2ccccc2c1/C=C/c1cc[n+]2c(c1)-c1c(c(C)c(C)c3c1-c1cc(/C=C/c4c(OC)ccc5ccccc45)cc[n+]1CC3)CC2 ... 2.4

Turning now to a further record.
Q: Form field: reported Fold change, all regions (A, B and C) together of NCCOc1cc(C(=O)Nc2cc(OCCN)c3ccccc3n2)nc(C(=O)Nc2cc(OCCN)c3ccccc3n2)c1 [PDS, pyridostatin, reference compound]
A: 2.4
